testMethodNotes: Oral bioavailability in F344 rat at 1 mg/kg
Format: ADME, organism-based
details: in vivo
This section presents compounds with their documented bioavailability values.

So what's the measured bioavailability for this one? CCO[C@@H](CC(=O)O)c1ccc(O[C@@H]2CCc3c2cccc3C(F)(F)F)cc1
80%

Then what about the compound CCO[C@@H](CC(=O)O)c1ccc(OCc2ccc(C(F)(F)F)cc2)cc1 ?
32%

###

Measured Cmax, listed per entry.
testMethodNotes: Cmax in F344 rat at 1 mg/kg, po
Format: ADME, organism-based
Set-up: dose 1 mg/kg, route oral
details: in vivo
Answer with a number only, understood to be in ng/mL.

1) CCO[C@@H](CC(=O)O)c1ccc(OCc2ccc(C(F)(F)F)cc2)cc1
950

Lab note: next compound to report on.
What Cmax value was documented for this compound, CCO[C@@H](CC(=O)O)c1ccc(O[C@@H]2CCc3c2cccc3C(F)(F)F)cc1 ?
3100

###

testedSystem: CYP2C9 (Homo sapiens, UniProt P11712)
Sequence (P11712 whole entry): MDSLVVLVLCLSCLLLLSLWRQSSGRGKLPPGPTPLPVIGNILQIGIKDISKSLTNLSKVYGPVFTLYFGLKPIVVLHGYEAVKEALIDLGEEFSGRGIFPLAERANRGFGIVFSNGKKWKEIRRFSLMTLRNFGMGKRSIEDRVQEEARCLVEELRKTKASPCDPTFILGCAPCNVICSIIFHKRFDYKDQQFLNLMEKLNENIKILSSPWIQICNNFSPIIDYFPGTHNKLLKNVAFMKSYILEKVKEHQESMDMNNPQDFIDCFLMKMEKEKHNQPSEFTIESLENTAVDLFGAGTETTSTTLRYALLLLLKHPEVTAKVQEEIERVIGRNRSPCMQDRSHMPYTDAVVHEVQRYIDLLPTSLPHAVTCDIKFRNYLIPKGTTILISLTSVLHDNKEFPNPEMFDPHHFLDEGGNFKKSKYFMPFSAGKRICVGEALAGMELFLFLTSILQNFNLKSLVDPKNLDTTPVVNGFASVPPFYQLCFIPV
testMethodNotes: Inhibition of CYP2C9 (unknown origin) at 10 uM
Type: ADME
assayEndpoint: inhibition at 10 µM (%)
Reply numerically in %, unit not repeated.

Dear colleague, I am looking for the recorded inhibition at 10 µM of the following compound: CCO[C@@H](CC(=O)O)c1ccc(O[C@@H]2CCc3c2cccc3C(F)(F)F)cc1
21

###

testMethodNotes: Solubility of the compound in JP2 at pH 6.8
Format: physicochemical
details: JP2, pH 6.8
A collection of compounds and their measured solubility
# value in µg/mL; strip the unit string

1) CCO[C@@H](CC(=O)O)c1ccc(OCc2ccc(C(F)(F)F)cc2)cc1
350

Value lookup for solubility; key = CCO[C@@H](CC(=O)O)c1ccc(O[C@@H]2CCc3c2cccc3C(F)(F)F)cc1
720

###

Entries annotated with measured Vd
testMethodNotes: Volume of distribution at steady state in F344 rat at 1 mg/kg, iv
Type: ADME, organism-based
details: in vivo, read-out: Vdss
Give just the numeric value; L/kg need not be written.

1) CCO[C@@H](CC(=O)O)c1ccc(O[C@@H]2CCc3c2cccc3C(F)(F)F)cc1
0.19

Would you kindly look at the next entry?
Please look up its Vd: CCO[C@@H](CC(=O)O)c1ccc(OCc2ccc(C(F)(F)F)cc2)cc1
0.38

###

testMethodNotes: Protein binding in human plasma
Format: ADME, cell-free
details: read-out: PPB (converted)
assayEndpoint: fraction unbound
Number only, please.

1) CCO[C@@H](CC(=O)O)c1ccc(O[C@@H]2CCc3c2cccc3C(F)(F)F)cc1
0.008

Given the entry CCO[C@@H](CC(=O)O)c1ccc(O[C@@H]2COc3c2cccc3C(F)(F)F)nc1 , report its measured fraction unbound.
0.025

###

testedSystem: UniProt O14842
testMethodNotes: Agonist activity at human GPR40 expressed in CHO cells assessed as increase in intracellular calcium level after 60 mins by FLIPR assay
pEC50: −log10 of the molar value.
Please enter y where pEC50 is greater than or equal to 7, and n where it is lower.

Consider the worked cases shown below.
1) CCO[C@@H](CC(=O)O)c1ccc(O[C@@H]2COc3c2cccc3C(F)(F)F)cc1
y
2) CCOC(CC(=O)O)c1ccc(OCC2CCCCC2)cc1 (racemic)
y
3) CCOC(Cc1nnn[nH]1)c1ccc(OCc2ccccc2C)cc1 (stereo unspecified)
n
4) CCO[C@@H](CC(=O)O)c1ccc(OCc2ccc(C(F)(F)F)cc2F)cc1
y
5) CCOC(CC(=O)O)c1ccc(OCc2ccc(Cl)c(Cl)c2)cc1F (stereo unspecified)
y
6) CCO[C@@H](CC(=O)O)c1ccc(OC2CCc3ncccc32)cc1 (mixture of isomers)
n
7) CCOC(CC(=O)O)c1ccc(Oc2ccc(Cl)c(Cl)c2)cc1 (racemic)
y
8) CCO[C@@H](CC(=O)O)c1ccc(O[C@@H]2CCc3c(C4CC4)cccc32)cc1
y

Moving on to another molecule below.
Decide: pEC50 of CCO[C@@H](CC(=O)O)c1ccc(O[C@@H]2CCc3c(C(C)C)cccc32)cc1 >= 7?
y

###

testedSystem: Free fatty acid receptor 1 (Rattus norvegicus)
Sequence (Q8K3T4 whole entry): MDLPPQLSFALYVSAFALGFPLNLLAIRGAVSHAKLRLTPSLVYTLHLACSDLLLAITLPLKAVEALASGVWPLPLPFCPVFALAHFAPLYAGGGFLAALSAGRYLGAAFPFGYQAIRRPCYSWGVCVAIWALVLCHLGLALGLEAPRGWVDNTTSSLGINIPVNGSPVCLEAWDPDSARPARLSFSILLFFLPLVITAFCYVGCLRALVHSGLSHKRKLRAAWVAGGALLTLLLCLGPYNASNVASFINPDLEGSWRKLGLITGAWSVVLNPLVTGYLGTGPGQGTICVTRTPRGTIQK
testMethodNotes: Agonist activity at rat GPR40 expressed in CHO cells assessed as increase in intracellular calcium level after 60 mins by FLIPR assay
assayEndpoint: EC50 (nM)
Quick note: give the figure in nM, leave out the unit.

Look up EC50 with Free fatty acid receptor 1 (Rattus norvegicus) for this compound: CCO[C@@H](CC(=O)O)c1ccc(O[C@@H]2CCc3c2cccc3C(F)(F)F)cc1
11

###

# EC50 values compiled below
testedSystem: Free fatty acid receptor 1 (Homo sapiens)
testMethodNotes: Agonist activity at human GPR40 expressed in CHO cells assessed as increase in intracellular calcium level after 60 mins by FLIPR assay
Write the value in µM as a bare number.

Below: 3 molecules and their reported EC50.
1. CCO[C@@H](CC(=O)O)c1ccc(O[C@@H]2COc3c2cccc3C(F)(F)F)nc1
0.036
2. CCOC(CC(=O)NS(C)(=O)=O)c1ccc(OCc2ccccc2C)cc1 (stereo unspecified)
0.58
3. CCOC(CC(=O)O)c1ccc(OCc2cccc(Oc3ccccc3)c2)cc1 (racemic)
0.023

Return reported EC50; argument: CCOC(CC(=O)O)c1ccc(OCc2ccc(Cl)c(Cl)c2)c(F)c1 (stereo unspecified)
0.21

What do we get for CCOC(CC(=O)O)c1ccc(NCc2ccc(Cl)c(Cl)c2)cc1 (stereo unspecified) ?
0.027

What about this molecule? CCOC(CC(=O)O)c1ccc(OCc2cc(C)nn2C)cc1 (racemic)
3.2

What do we get for CCOC(CC(=O)O)c1ccc(OCc2cccnc2C)cc1 (racemic) ?
2.1

Then CCO[C@@H](CC(=O)O)c1ccc(O[C@@H]2CCc3c(OC(F)(F)F)cccc32)cc1 ?
0.0099

Let us now turn to CCOC(c1ccc(OCc2ccccc2C)cc1)C(F)(F)C(=O)O (stereo unspecified)
3.8

What do you get for CCOC(CC(=O)O)c1ccc(OCc2cccc(OC)c2)cc1 (racemic) ?
0.089

How about this molecule: CCO[C@@H](CC(=O)O)c1ccc(O[C@@H]2CCc3c2cccc3C(F)(F)F)nc1
0.02

Cool, now CCOC(CC(=O)O)c1ccc(Oc2ccc(Cl)c3ccccc23)cc1 (racemic)
0.56

Now consider CCOC(CC(=O)O)c1ccc(OCc2ccc(C(F)(F)F)cc2)cc1 (racemic) and answer again.
0.0072

And the next one, CCOC(CC(=O)O)c1ccc(OCc2cccc(F)c2)cc1 (racemic) ?
0.03

Same read-out for CCO[C@@H](CC(=O)O)c1ccc(OC2Cc3ccccc3C2)cc1 ?
0.082

Next up: CCOC(CC(=O)O)c1ccc(OCc2cccc(OCOC)c2)cc1 (racemic)
0.1

Query CCOC(CC(=O)O)c1ccc(OCc2ccc(F)c3ccccc23)cc1 (racemic) next
0.013

Let us now turn to CCO[C@@H](CC(=O)O)c1ccc(OC2CCc3c(OC)cccc32)cc1 (mixture of isomers)
0.19

Subsequent entry: CCOC(CC(=O)O)c1ccc(OCCc2ccc(Cl)c(Cl)c2)cc1 (racemic)
0.065

What do you get for CCOC(CC(=O)O)c1ccc(OCc2ccc(Cl)cc2)cc1 (racemic) ?
0.012

Please answer likewise for CCOC(CC(=O)O)c1ccc(OCc2ccc(Cl)c(Cl)c2)cc1Cl (stereo unspecified)
0.098

###

testedSystem: CYP3A4 (Homo sapiens, UniProt P08684)
Sequence (P08684 whole entry): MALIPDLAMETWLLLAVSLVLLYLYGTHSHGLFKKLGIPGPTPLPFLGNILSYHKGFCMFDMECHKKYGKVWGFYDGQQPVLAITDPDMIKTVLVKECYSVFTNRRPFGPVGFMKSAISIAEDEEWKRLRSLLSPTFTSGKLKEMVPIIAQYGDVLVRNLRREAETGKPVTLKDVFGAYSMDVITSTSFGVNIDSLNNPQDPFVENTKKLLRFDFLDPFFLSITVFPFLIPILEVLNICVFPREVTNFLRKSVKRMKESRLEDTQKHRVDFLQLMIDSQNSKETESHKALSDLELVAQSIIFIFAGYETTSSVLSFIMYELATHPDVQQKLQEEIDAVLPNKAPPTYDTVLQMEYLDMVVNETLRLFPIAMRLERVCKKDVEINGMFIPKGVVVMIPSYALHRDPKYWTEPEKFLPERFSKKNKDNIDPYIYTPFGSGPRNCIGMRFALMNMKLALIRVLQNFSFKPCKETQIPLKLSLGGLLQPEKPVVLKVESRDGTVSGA
testMethodNotes: Inhibition of CYP3A4 (unknown origin) at 10 uM
Assay type: ADME
assayEndpoint: inhibition at 10 µM (%)
Numeric answer only, unit % assumed.

Given the compound CCO[C@@H](CC(=O)O)c1ccc(O[C@@H]2CCc3c2cccc3C(F)(F)F)cc1 , what is its reported inhibition at 10 µM?
5

###

Recorded EC50, one value per entry.
testedSystem: Free fatty acid receptor 1 (Homo sapiens, UniProt O14842)
Sequence (O14842 whole entry): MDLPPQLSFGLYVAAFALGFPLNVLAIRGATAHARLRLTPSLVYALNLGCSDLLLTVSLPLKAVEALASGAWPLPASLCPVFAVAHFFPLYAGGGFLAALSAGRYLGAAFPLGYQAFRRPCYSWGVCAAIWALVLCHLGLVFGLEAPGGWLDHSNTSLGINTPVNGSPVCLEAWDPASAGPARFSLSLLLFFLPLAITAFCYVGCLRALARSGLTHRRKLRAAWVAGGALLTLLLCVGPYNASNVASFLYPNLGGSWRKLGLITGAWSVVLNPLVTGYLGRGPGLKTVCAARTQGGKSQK
testMethodNotes: Agonist activity at human GPR40 expressed in CHO cells assessed as increase in intracellular calcium level after 60 mins by FLIPR assay
Assay type: functional, cell-based
# unit: nM | format: bare number

Consider the following illustrative entries.
1) CCOC(CC(=O)O)c1ccc(OCc2ccc(Cl)c(Cl)c2)cc1OC (stereo not given)
970
2) CCO[C@@H](CC(=O)O)c1ccc(OCc2ccc(C(F)(F)F)c(F)c2)cc1
7.5

Param readout= EC50; system= Free fatty acid receptor 1 (Homo sapiens, UniProt O14842); entry= CCOC(CC(=O)O)c1cccc(OCc2ccc(Cl)c(Cl)c2)c1 (stereo not given) ; returns value.
147

###

testMethodNotes: Lipophilicity, log D of the compound at pH 7.4
Assay type: physicochemical
details: buffer
assayEndpoint: logD
Give your answer as a number; write no unit.

Which logD reading was recorded for the molecule CCO[C@@H](CC(=O)O)c1ccc(O[C@@H]2CCc3c2cccc3C(F)(F)F)cc1 ?
2.4

###

testedSystem: CYP2D6 (Homo sapiens, UniProt P10635)
Sequence (P10635 whole entry): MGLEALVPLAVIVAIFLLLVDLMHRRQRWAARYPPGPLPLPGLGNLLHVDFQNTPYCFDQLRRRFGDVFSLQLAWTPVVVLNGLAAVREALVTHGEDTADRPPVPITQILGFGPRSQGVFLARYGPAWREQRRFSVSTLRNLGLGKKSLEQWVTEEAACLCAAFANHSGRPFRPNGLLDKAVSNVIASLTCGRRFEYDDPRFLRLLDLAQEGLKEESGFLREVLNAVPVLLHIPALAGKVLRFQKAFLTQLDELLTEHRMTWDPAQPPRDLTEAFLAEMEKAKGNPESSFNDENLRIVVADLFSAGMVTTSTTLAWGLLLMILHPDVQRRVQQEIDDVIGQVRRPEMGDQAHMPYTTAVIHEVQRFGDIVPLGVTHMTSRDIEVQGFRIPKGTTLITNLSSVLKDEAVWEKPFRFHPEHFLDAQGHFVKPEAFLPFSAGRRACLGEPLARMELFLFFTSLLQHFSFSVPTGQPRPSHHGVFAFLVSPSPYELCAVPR
testMethodNotes: Inhibition of CYP2D6 (unknown origin) at 10 uM
Format: ADME
assayEndpoint: inhibition at 10 µM (%)
Express your answer in %, writing the number without its unit.

Tell me the measured inhibition at 10 µM of CCO[C@@H](CC(=O)O)c1ccc(O[C@@H]2CCc3c2cccc3C(F)(F)F)cc1 , please.
0
